Experiment: chemical genetic growth profiling, strain panel (AID 1159580);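 further: tested at 20 µM; growth read once vehicle control cultures reached saturation at 30 °C; 1 = growth at the plate median or of vehicle wells; lower values mean less growth of the strain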
Details: S. cerevisiae deletion strains, growth OD, locus YLL026W, hits give low values
Out of some 5,500 compounds screened, about 2,000 (36%) were called active. Inconclusive results (about 18%) are left out. This is one part of the list.
measured metric: normalized growth

Recorded normalized growth, per entry:
compound=O=C(/C=C/c1ccc(O)cc1)c1ccc(O)cc1O measured_metric="normalized growth" recorded_result="1 (inactive)"
compound="COc1cc2c(cc1OC)C(C)NCC2 (centres undefined)" measured_metric="normalized growth" recorded_result="0.986 (inactive)"
compound="C[N+]12CCC(CC1)C(OC(=O)C(O)(c1ccccc1)c1ccccc1)C2 (centres undefined)" measured_metric="normalized growth" recorded_result="0.975 (inactive)"

// each compound listed below needs its normalized growth
1. O=C(/C=C/c1ccccc1)c1ccc(O)cc1O
2. CO/N=C(/C(=O)NC1C(=O)N2C(C(=O)OCOC(=O)C(C)(C)C)=C(/C=C\c3scnc3C)CSC12)c1csc(N)n1 (centres undefined)
3. CC[C@H]1OC(=O)[C@H](C)[C@@H](O[C@H]2C[C@@](C)(OC)[C@@H](O)[C@H](C)O2)[C@H](C)[C@@H](O[C@@H]2O[C@H](C)C[C@H](N(C)C)[C@H]2O)[C@](C)(O)C[C@@H](C)/C(=N/OCOCCOC)[C@H](C)[C@@H](O)[C@]1(C)O

A.
0.0586 (active)
0.996 (inactive)
1.01 (inactive)
